Values from paper PMC3712460

# target_or_system: ϕMalE-NapAsp^His (E. coli)
# protocol_notes: ITC
pKd: −log10 of the molar value.
assay_metric: pKd

binder | pKd
NapD T59I (NapD^His variant) (natural protein) MHTNWQVCSLVVQAKSERISDISTQLNAFPGCEVAVSDAPSGQLIVVVEAEDSETLIQIIESVRNVEGVLAVSLVYHQQEEQGEETP | 6.48
NapD A14T (NapD^His variant) (natural protein) MHTNWQVCSLVVQTKSERISDISTQLNAFPGCEVAVSDAPSGQLIVVVEAEDSETLIQTIESVRNVEGVLAVSLVYHQQEEQGEETP | 6.12
NapD I19F/T59I (NapD^His variant) (natural protein) MHTNWQVCSLVVQAKSERFSDISTQLNAFPGCEVAVSDAPSGQLIVVVEAEDSETLIQIIESVRNVEGVLAVSLVYHQQEEQGEETP | 6.03
NapD A14T/A71T (NapD^His variant) (natural protein) MHTNWQVCSLVVQTKSERISDISTQLNAFPGCEVAVSDAPSGQLIVVVEAEDSETLIQTIESVRNVEGVLTVSLVYHQQEEQGEETP | 6.24

a: NapD I19F (NapD^His variant) (natural protein) MHTNWQVCSLVVQAKSERFSDISTQLNAFPGCEVAVSDAPSGQLIVVVEAEDSETLIQTIESVRNVEGVLAVSLVYHQQEEQGEETP
b: NapD A71T (NapD^His variant) (natural protein) MHTNWQVCSLVVQAKSERISDISTQLNAFPGCEVAVSDAPSGQLIVVVEAEDSETLIQTIESVRNVEGVLTVSLVYHQQEEQGEETP
Which of the two gives a bigger number for pKd: a or b ? Selection: enter the item's label.
b
(b: 6.50, a: 6.09)
